assay details: AUC (0 to 6 hrs) in rat at 10 mg/kg, po
Assay type: ADME, organism-based
Parameters: time < 6 hr, dose 10 mg/kg, route oral
measurement parameters: plasma
metric: AUC(0-t) at 6 h (ng·h/mL)

In [3]: df
Out[3]:
                    structure_smiles_string  value_reported
0  COc1cc(Cl)cc(-c2nnc(N3CCC(N4CCCCC4)CC3)s2)c1             379

* * *

tgt: Histamine H3 receptor (Homo sapiens)
Sequence (Q9Y5N1 whole entry): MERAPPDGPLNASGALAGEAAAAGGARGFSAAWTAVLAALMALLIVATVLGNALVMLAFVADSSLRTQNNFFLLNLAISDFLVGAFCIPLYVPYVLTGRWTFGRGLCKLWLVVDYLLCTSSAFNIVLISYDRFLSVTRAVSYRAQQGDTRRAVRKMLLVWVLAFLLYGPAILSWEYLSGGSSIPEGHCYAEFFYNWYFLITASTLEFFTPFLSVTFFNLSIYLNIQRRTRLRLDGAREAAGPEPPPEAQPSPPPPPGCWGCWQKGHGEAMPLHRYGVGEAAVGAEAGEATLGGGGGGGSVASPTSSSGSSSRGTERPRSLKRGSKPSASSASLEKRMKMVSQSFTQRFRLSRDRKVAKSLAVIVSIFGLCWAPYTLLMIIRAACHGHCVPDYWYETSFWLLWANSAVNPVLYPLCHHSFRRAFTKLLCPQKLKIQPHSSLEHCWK
assay details: Displacement of [3H]-N-alpha-methylhistamine from human recombinant histamine H3 receptor expressed in HEK cells after 30 mins by scintillation counting
pKi: −log10 of the molar value.
pKi: recorded values
metric: pKi

>>> df
                                    compound  value_reported
 0    c1n[nH]cc1-c1nnc(N2CCC(N3CCCCC3)CC2)s1            6.72
 1    Clc1ccccc1-c1nnc(N2CCC(N3CCCCC3)CC2)s1            7.16
 2  COc1cc(OC)cc(-c2nnc(N3CCC(N4CCCCC4)CC3)s2)c1            7.82
 3  COc1ccc(-c2nnc(N3CCN4CCCC4C3)s2)cc1 (stereo unspecified)            6.19
 4   COc1ccc(-c2nnc(N3CCN(C4CCCC4)CC3)s2)cc1            6.74
 5     Cc1ccccc1-c1nnc(N2CCC(N3CCCCC3)CC2)s1            7.44
 6  Clc1cc(Cl)cc(-c2nnc(N3CCC(N4CCCCC4)CC3)s2)c1            7.14
 7  Clc1ccc(-c2nnc(N3CCC(N4CCCCC4)CC3)s2)cc1            6.79
 8  COc1cc(C#N)cc(-c2nnc(N3CCC(N4CCCCC4)CC3)s2)c1            7.92
 9  COc1cc(F)cc(-c2nnc(N3CCC(N4CCCCC4)CC3)s2)c1            7.80
10  N#Cc1ccc(-c2nnc(N3CCC(N4CCCCC4)CC3)s2)cc1            7.44
11   Fc1cccc(-c2nnc(N3CCC(N4CCCCC4)CC3)s2)c1            7.21
12   Fc1ccc(-c2nnc(N3CCC(N4CCCCC4)CC3)s2)cc1            7.41
13  CC(=O)c1ccc(-c2nnc(N3CCC(N4CCCCC4)CC3)s2)cc1            7.19
14  COc1cc(Cl)cc(-c2nnc(N3CCC(N4CCCCC4)CC3)s2)c1            7.92
15    c1ccc(-c2nnc(N3CCC(N4CCCCC4)CC3)s2)cc1            7.10
16   COc1ncc(-c2nnc(N3CCC(N4CCCCC4)CC3)s2)s1            7.55
17   Cc1ccc(-c2nnc(N3CCC(N4CCCCC4)CC3)s2)cc1            6.79
18  COc1ccc(-c2nnc(N3CCC(N4CCCCC4)CC3)s2)cc1            7.40
19  Fc1cc(F)cc(-c2nnc(N3CCC(N4CCCCC4)CC3)s2)c1            7.30
20    COc1ccccc1-c1nnc(N2CCC(N3CCCCC3)CC2)s1            7.40
21  O=C(Nc1nnc(N2CCC(N3CCCCC3)CC2)s1)NC1CCCC1            7.31
22  N#Cc1cc(C#N)cc(-c2nnc(N3CCC(N4CCCCC4)CC3)s2)c1            7.64
23  COc1cccc(-c2nnc(N3CCC(N4CCCCC4)CC3)s2)n1            8.46
24   Cc1cccc(-c2nnc(N3CCC(N4CCCCC4)CC3)s2)c1            7.22
25        CCN1CCN(c2nnc(-c3ccc(OC)cc3)s2)CC1            6.79
26  CC(=O)c1cccc(-c2nnc(N3CCC(N4CCCCC4)CC3)s2)c1            8.40
27  N#Cc1cccc(-c2nnc(N3CCC(N4CCCCC4)CC3)s2)c1            7.37
28   Cc1cccc(-c2nnc(N3CCC(N4CCCCC4)CC3)s2)n1            8.21
29    c1ccc(-c2nnc(N3CCC(N4CCCCC4)CC3)s2)nc1            7.52
30  CC(=O)c1ccccc1-c1nnc(N2CCC(N3CCCCC3)CC2)s1            8.08
31  Clc1cccc(-c2nnc(N3CCC(N4CCCCC4)CC3)s2)c1            7.31
32    c1cnc(-c2nnc(N3CCC(N4CCCCC4)CC3)s2)nc1            6.99
33  COc1cccc(-c2nnc(N3CCC(N4CCCCC4)CC3)s2)c1            7.50
34     Fc1ccccc1-c1nnc(N2CCC(N3CCCCC3)CC2)s1            7.44
35   COc1ccc(-c2nnc(N3CCC(N4CCCC4)CC3)s2)cc1            6.22
